src = PubChem BioAssay (NCI)

- Tested on: COLO 205 colon
- measurement_protocol: NCI-60 one-dose screen, 48 h
- measurement_conditions: 10 µM unless noted
- Protocol: Cells are grown in 96 well plates and exposed to the test compound for 48 hours. Compounds are tested at a single concentration, which is 10^-5 M for most compounds. The reported endpoint is percent growth (GI% or GIPRCNT), where numbers from 0 - 100% represent growth inhibition, and numbers from -100% - 0 represent cell death. For example, a value of 40 represents 60% growth inhibition. A value of 0 means no net growth occurred over the course of the experiment. […]
About 83,000 compounds went through this panel and 20% of them were active in at least one assay; those are over-represented in the sample as a whole. Activity calls are given as the source filed them. The calls were made as follows: active = growth percent below 10; inactive = the rest.
Log the outcome using a class from Y for active, N for inactive

Query block: Please state the recorded outcome for this compound: `CCCCCCCC/C=C\CCCCCCCCOc1ccc(CC(=O)NCC[N+]2(C)CCCC2)cc1`
Result block: Y

Query block: Next entry: `COc1ccc(-c2nc3cc(C(=O)NC4CCCCC4)ccc3n2C2CCCCC2)cc1`
Result block: N

Query block: Same read-out for `CC1(C)CCC[C@]23C(=O)O[C@](O)(C(=O)C4=C[C@@](C)(/C=C/CCCc5ccc6ccc7cccc8ccc5c6c78)CC[C@@]42O)[C@@H]13` ?
Result block: Y

Query block: Now give it for C=C1CC[C@@H]2[C@](C)(COC(C)=O)[C@H](OC(C)=O)CC[C@@]2(C)[C@@H]1CC(Nc1ccc(S(=O)(=O)Nc2nccc(C)n2)cc1)C1=CCOC1=O (stereo partly drawn) too.
Result block: Y

Query block: What do you get for Cc1ccc(C2=Nc3c(N)nc(N)nc3NC(c3cccc(Nc4ccnc5cc(C(F)(F)F)ccc45)c3)C2)cc1 (stereo not drawn) ?
Result block: Y

Query block: Another compound to check: `COc1cccc(C(=O)Nc2cccc(NC(=O)c3ccccn3)c2)c1`
Result block: N

Query block: // query: `COc1cc(OCc2cccc(-c3ccc4c(c3)OCCO4)c2C)cc(OC)c1C=O`
Result block: N

Query block: Entry CO[C@H]1/C=C/O[C@@]2(C)Oc3c(C)c(O)c4c(O)c(c5c(nc6cc(C)ccn65)c4c3C2=O)NC(=O)/C(C)=C\C=C\[C@H](C)[C@H](O)[C@@H](C)C(O)[C@@H](C)[C@H](OC(C)=O)[C@@H]1C (stereo partly drawn) please
Result block: Y
